Assay: protein stability index of a GFP-peptide fusion (yeast GPS) (PSI 1-4); higher = more stable; sorted into four equal gates, so the index is relative within each strain
Conditions: doa10∆
reported.endpoint: protein stability index

* ANYIKERTKNAQFIVIS [SMC4] | 2.76
* IDLEAPVQIVKRITQIT [RPS20] | 2.15
* KPVYKGKKLTDEINTAQ [RET1] | 2.92
* NEPSQSLISTRNDSTVN [BRN1] | 3.16
* IRYNAKRRNWRRTKMNI [RPL39] | 3.23
* LKNKKEIYRISFQLSKI [RPS9A] | 3.03
* DPNLSFESSSSLPFLLR [SSN2] | 3.07
* ATQSGGVRPFGVSLLIA [PRE8] | 1.29
* DNNSSLNVSNTKENGDF [PRP8] | 3.17
* DTEMKMKSLLTELSNKE [YIL149C/MLP2] | 3.31
* AINPGRVAASFSQEALQ [FAS1] | 2.05
* PEYLAMYGLTMEWPKDM [ITC1] | 2.45
* LTSVTNDICSVENYETS [SIR4] | 2.18
* VHDKVLEDMVFPTEIVG [RPS7B] | 2.63
* ETDGKHGKRRSQVVETH [YMR129W/POM152] | 3.27
* RTLRRKGDINPEVSMIR [RPB2] | 3.11
* TRPQMPSRTRETATSER [GRR1] | 2.85
* SKNRIIVEADEKKGIVQ [RET1] | 1.21
* SLINSHLKILASSNFPF [RPC82] | 2.64
* NQLSQTNKLLFKRVSQT [NUT1] | 1.92
* WIKNEQERQRQIQKNGP [PRP8] | 2.75
* ARKHKLKTLVQGPRSYF [RPS27A] | 3.15
* MSVSDNDQALIKVLLRQ [RET1] | 2.48
* KELENNLERLRSDLQSK [YIL149C/MLP2] | 3.17
* PQVLINRDPVKHAEFDL [SIR2] | 2.39
* ALHYLVPFIIAAMVIMH [COB] | 1.73
* NVKFLRIFISNVSENQP [SNF12] | 1.53
* KSIDSKTPEEVEVYAKI [ISW2] | 1.88
* LKSGLPLSGLLFKNYRF [YMR129W/POM152] | 3.65
* IDSSNLPLQAQQQLYGG [SWI1] | 2.91
* VRWIETQDVFLKDFNTE [FAS2] | 3.23
* VHELSKRVHTLLTLIVR [ISW2] | 1.34
* QVVLGGTSKYLINGHRA [SMC2] | 2.88
* TPGELVTDDPIWMRGHG [RRP4] | 2.65
* KQTDTGITHFRAGMTHE [PRP8] | 2.36
* NNSTGIANDNVITPHFI [SWI1] | 2.69
* EEKEKEQSKEVGDVVGG [BRN1] | 3.29
* KNVETLEEKILAKKTHK [SMC4] | 2.65
* MMVNNQTMQLIKNVQDL [SRB6] | 2.84
* KNTIDFERFPSPSTSAN [RPN4] | 2.87
* DDTKNQDSMSKGTGEES [YGR119C/NUP57] | 3.16
* TIGAIFLNHAFDYMNRY [CDC53] | 2.04
* QGDVEQIAAQSPVELSR [SMC1] | 2.66
* FKVYEPLLLVGLDKFSN [RPS16A] | 1.72
* ISSRTFGQRAVLKFAAH [RPS0A] | 2.35
* LIGSIRFPTKFVTQFRH [RET1] | 1.57
* IPQSQQVPQVRSMSGQP [SNF5] | 2.52
* VVGTETRVNAQLESYEY [RRI1] | 2.72
* KDFTNKNLIQLISLKLL [SRB8] | 1.28
* AYSNTNTNTENENRNTG [SNF11] | 3.1
* QQWGNDFYKRDPRIAPL [FAS2] | 1.88
* SFLDPLNYGNICEPKET [YJL039C/NUP192] | 3.33

----------
Test: protein stability index of a GFP-peptide fusion (yeast GPS) (PSI 1-4); higher = more stable; sorted into four equal gates, so the index is relative within each strain
Settings: san1∆
reported.endpoint: protein stability index

* EDARRNPNPSSQRAQVV [RPC37] | 3.02
* TARVMGGLKNGVLYQGN [DIS3] | 3.06
* TETSNEDEDEDDETPSC [SNU114] | 3.02
* VVSILEAGDSDILTTLA [RPL30] | 3.01
* EQRHLKRELKRAQEEVK [RPT3] | 2.95

----------
Assay: protein stability index of a GFP-peptide fusion (yeast GPS) (PSI 1-4); higher = more stable; sorted into four equal gates, so the index is relative within each strain
Details: ubr1∆
reported.endpoint: protein stability index

• EKSTQLQQKHELDTASR [YGR119C/NUP57] = 3.21
• PTESYLQYIIHDTLNNE [BRR2] = 2.26
• AYPAAREQFLNAQDIDH [FAS1] = 3.21
• IALNLDTTVNDCLDKLL [SNF2] = 2.9

----------
Assay: protein stability index of a GFP-peptide fusion (yeast GPS) (PSI 1-4); higher = more stable; sorted into four equal gates, so the index is relative within each strain
Settings: san1∆
reported.endpoint: protein stability index

- TKRWYKNAGLGFKTPKT [RPS11A]: 3.05
- PEYFESPLQSSKSKQSF [YMR129W/POM152]: 2.91
- VVLFNRQPSLHRLSILS [RPO31]: 1.44
- VLKCLKSLESQRYVKSV [RPC34]: 1.99
- RQGRSNRRGMLALSGTS [SNF5]: 2.81
- VQVGPMKVFVTKHLMPQ [RPB7]: 2.14
- QTVSNKEDAKATMENIQ [SRP54]: 2.91
- IQSSLMTNLTYFLHLSV [YCS4]: 1.89
- GTAGGNTFGSSSLFNNS [YJL041W/NSP1]: 3.12
- YVNALADVLYKTAFKPH [QCR2]: 2.72
- RDDGKRELLVEGYGLRD [RPO31]: 2.72
- SVDESARIKDAFITQLE [YJL039C/NUP192]: 2.9
- LQQQQQVVTTVASQSPH [SNF6]: 2.03
- IEAASTTQDQCKLTLDI [RPB8]: 2.81
- LTDLDSPSEFVDVAIPC [RPS0A]: 2.31
- PFVPVLDRRFEIFFKKD [FAS1]: 2.73
- YGTATADDADIEMKDVS [MED1]: 3.01
- TFTQLVSSSLYERRFGP [PUP3]: 2.73
- KAIRGMVSHKTARGKAA [RPL16B]: 2.14
- IFNSNKAKIIPGNGKHA [SIR4]: 1.9
- IGHLIKTRFKGSQFIVV [SMC2]: 3.38
- ANLRVLNSYWVNQDSTY [RPL15A]: 2.78
- YFFQLQIRSADEPMTTF [RPC11]: 3.06
- LYAVSTFENTNNTEKND [SIR4]: 2.5
- YLKKREAGEVKDDGAFV [RPL10]: 3.37
- ASLHSKELTRIPGEEVE [MED4]: 3.03
- RGVTKVGFGESNFTSII [SMC1]: 3.09
- KKPLSMALNKVLITDHI [CDC53]: 2.18
- PRALQPSQFGMLCTADT [RET1]: 2.02
- HHELIKVKHDSQPFIKF [SSN2]: 2.86
- SILSFVDKELLEPGCSV [RPT2]: 2.3
- TPNVREEKQKSYKFPRG [PUP1]: 3.13
- IWMRGHGTYFLDNMTYS [RRP4]: 2.31
- KKMGVPYAIIKGKARLG [RPL8B]: 2.11
- NGTTVWGTLQSVSPQMN [SMD1]: 3.39
- LLALRERRMQVTAEDFK [RPT2]: 2.89
- SITTGNDNENIVNNDLP [MED2]: 2.57
- PFFKYIDDANVTRKQED [RPC37]: 2.34
- LVYDVKGRFAVHRITDE [RPS4A]: 3.46
- NNNQKIDDNYIVVVIEI [SRB8]: 3.29
- KNLSLQTGTKPVLKKKA [COR1]: 3.09
- GKKWFEVSQFLIENGAS [NAS6]: 1.4
- IEAGRAALYKEVYNVIA [RPO21]: 2.41
- KFMTNSTAFVPTIEYVQ [ARP9]: 2.83
- AAGKRISHIEKRIESLQ [SMC1]: 2.93
- KRNKYAAMLTSENAREI [RRP45]: 3.08
- TRAGGLGINLVTADTVI [ISW2]: 2.12
- NDDIEWMLSICVEWRLP [YJR042W/NUP85]: 1.83
- TFKDGVILGADSRTTTG [PRE3]: 2.69
- QRQDFERVRLRPEQLSN [SNF6]: 2.21
- PSEILHLILDKLNQKYD [GRR1]: 2.54
- AMFEICLKRGWGHPTRM [BRR2]: 2.21
- LELQVAKTFIDLESSSP [RPS7B]: 2.96
- YNIDANVIDTQRKNGVT [ECM29]: 3.26
- SLKGYKIENSVQIGAEI [CSI1]: 3.25
